Entries and their IC50 values follow.
# System: Plasmodium falciparum
# measurement-notes: Antiplasmodial activity against chloroquine-sensitive Plasmodium falciparum D10 by lactate dehydrogenase assay
# Type: functional, organism-based
Expressed in nM, but write only the number.

Worked examples, 6 compounds total:
| compound | endpoint-result |
| --- | --- |
| C[C@H]1[C@@H](OCCNCCCNc2ccnc3cc(Cl)ccc23)O[C@@H]2O[C@@]3(C)CC[C@H]4[C@H](C)CC[C@@H]1[C@@]24OO3.O=C(O)C(=O)O | 14.3 |
| CC(CNc1ccnc2cc(Cl)ccc12)NCCO[C@H]1O[C@@H]2O[C@@]3(C)CC[C@H]4[C@H](C)CC[C@@H]([C@H]1C)[C@@]24OO3 (stereo partly drawn) | 12.2 |
| C[C@H]1[C@@H](OCCNc2ccc(Nc3ccnc4cc(Cl)ccc34)cc2)O[C@@H]2O[C@@]3(C)CC[C@H]4[C@H](C)CC[C@@H]1[C@@]24OO3 | 30.4 |
| C[C@H]1[C@@H](OCCN2CCN(CCNc3ccnc4cc(Cl)ccc34)CC2)O[C@@H]2O[C@@]3(C)CC[C@H]4[C@H](C)CC[C@@H]1[C@@]24OO3.O=C(O)C(=O)O | 29 |
| C[C@H]1[C@@H](OCCNCCNc2ccnc3cc(Cl)ccc23)O[C@@H]2O[C@@]3(C)CC[C@H]4[C@H](C)CC[C@@H]1[C@@]24OO3.O=C(O)C(=O)O | 21.5 |
| C[C@H]1[C@@H](OCCNCCCNc2ccnc3cc(Cl)ccc23)O[C@@H]2O[C@@]3(C)CC[C@H]4[C@H](C)CC[C@@H]1[C@@]24OO3 | 118 |

// lookup IC50 for C[C@H]1[C@@H](OCCN2CCN(CCNc3ccnc4cc(Cl)ccc34)CC2)O[C@@H]2O[C@@]3(C)CC[C@H]4[C@H](C)CC[C@@H]1[C@@]24OO3 201

IC50 for C[C@H]1[C@@H](OCCNCCNc2ccnc3cc(Cl)ccc23)O[C@@H]2O[C@@]3(C)CC[C@H]4[C@H](C)CC[C@@H]1[C@@]24OO3 ? 84.6
